- EXPERIMENTAL TARGET: CYP11B2 (Homo sapiens (Human), UniProt P19099)
- Sequence (P19099 25-503): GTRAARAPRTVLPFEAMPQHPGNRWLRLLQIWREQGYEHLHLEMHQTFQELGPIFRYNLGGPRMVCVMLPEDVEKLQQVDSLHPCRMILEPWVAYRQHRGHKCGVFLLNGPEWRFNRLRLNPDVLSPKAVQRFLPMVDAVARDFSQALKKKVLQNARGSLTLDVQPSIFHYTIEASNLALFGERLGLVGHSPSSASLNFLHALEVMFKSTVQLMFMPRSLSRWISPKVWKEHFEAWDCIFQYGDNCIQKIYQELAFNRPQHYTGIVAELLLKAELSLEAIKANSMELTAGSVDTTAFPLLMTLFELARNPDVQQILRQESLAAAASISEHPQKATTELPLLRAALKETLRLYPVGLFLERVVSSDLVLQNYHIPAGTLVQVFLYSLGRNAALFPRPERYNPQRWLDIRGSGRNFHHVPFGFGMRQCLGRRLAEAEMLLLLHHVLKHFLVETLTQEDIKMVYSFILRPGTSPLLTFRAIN
- PROTOCOL NOTES: G-402 cellular enzyme assay, human CYP11B2 (aldosterone release)
- RECORDED CONDITIONS: G-402 cells expressing human CYP11B2; 1 μM Deoxycorticosterone
Examples of compounds with documented EC50 follow.
Give just the numeric value; nM need not be written.

1) CCS(=O)(=O)N1CC2(CC(Cc3c[nH]nc3-c3ccc4c(c3Cl)CCC(=O)N4C)C2)C1 :: 0.0059
2) CC(=O)N1CCC(Cc2c[nH]nc2-c2ccc3c(c2)CCC(=O)N3C)CC1 :: 0.0283
3) CN1C(=O)CCc2cc(-c3[nH]ncc3CC3CCN(C(=O)c4cncn4C)CC3)ccc21 :: 0.007

Dear colleague, I am looking for the recorded EC50 of the following compound: "CC(=O)N1CC2(CC(Cc3c[nH]nc3-c3ccc4c(c3Cl)CCC(=O)N4C)C2)C1"
0.0495

Dear colleague, I am looking for the recorded EC50 of the following compound: "CN1C(=O)CCc2cc(-c3[nH]ncc3CC3CCN(C(=O)c4ncccc4Cl)CC3)ccc21"
0.0145

Dear colleague, I am looking for the recorded EC50 of the following compound: "CC(=O)N1CCC(Cc2c[nH]nc2-c2ccc3c(c2F)CCC(=O)N3C)CC1"
0.012

Dear colleague, I am looking for the recorded EC50 of the following compound: "CN1C(=O)CCc2c1ccc(-c1n[nH]cc1CC1CC3(C1)CN(C(=O)c1cnn(C)c1)C3)c2Cl"
0.0377

Dear colleague, I am looking for the recorded EC50 of the following compound: "CC(=O)N1CCC(Cc2c[nH]nc2-c2cc3c(cc2F)N(C)C(=O)CC3)CC1"
0.0171

###

- EXPERIMENTAL TARGET: CYP11B2 (Homo sapiens (Human), UniProt P19099)
- PROTOCOL NOTES: G-402 cellular enzyme assay, human CYP11B2 (aldosterone release)
- RECORDED CONDITIONS: G-402 cells expressing human CYP11B2; 1 μM Deoxycorticosterone
ASSAY METRIC: EC50 (nM)
Give just the numeric value; nM need not be written.

Examples from the recorded data:
1. CCS(=O)(=O)N1CCC(Cc2c[nH]nc2-c2ccc3c(c2)CCC(=O)N3C)CC1 [Example 18] :: 0.0052
2. CN1C(=O)CCc2c1ccc(-c1[nH]ncc1CC1CCN(C(=O)c3ccnn3C)CC1)c2Cl [Example 29] :: 0.0164
3. CN1C(=O)CCc2cc(-c3[nH]ncc3CC3CCN(C(=O)c4nccn4C)CC3)ccc21 [Example 32] :: 0.0294

Dear colleague, I am looking for the recorded EC50 of the following compound: CN1C(=O)CCc2c1ccc(-c1[nH]ncc1CC1CCN(C(=O)c3ncccc3Cl)CC1)c2Cl [Example 28]
0.0276

Dear colleague, I am looking for the recorded EC50 of the following compound: CN1C(=O)CCc2c1ccc(-c1[nH]ncc1CC1CCN(C(=O)c3ccncc3Cl)CC1)c2Cl [Example 30]
0.0192

###

- EXPERIMENTAL TARGET: UniProt P15538
- Sequence (P15538 25-503): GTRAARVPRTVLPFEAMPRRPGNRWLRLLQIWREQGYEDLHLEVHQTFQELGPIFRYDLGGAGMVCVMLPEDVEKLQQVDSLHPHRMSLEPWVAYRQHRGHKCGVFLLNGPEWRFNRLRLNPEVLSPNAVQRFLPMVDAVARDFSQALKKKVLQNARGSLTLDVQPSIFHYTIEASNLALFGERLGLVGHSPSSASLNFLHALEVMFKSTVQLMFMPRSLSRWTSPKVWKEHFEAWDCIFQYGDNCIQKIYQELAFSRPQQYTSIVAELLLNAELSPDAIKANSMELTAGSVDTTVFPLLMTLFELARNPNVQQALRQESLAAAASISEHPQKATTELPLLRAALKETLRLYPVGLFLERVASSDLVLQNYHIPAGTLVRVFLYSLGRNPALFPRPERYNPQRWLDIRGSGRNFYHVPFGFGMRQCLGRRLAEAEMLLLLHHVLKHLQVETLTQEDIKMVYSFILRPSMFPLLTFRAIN
- PROTOCOL NOTES: G-402 cellular enzyme assay, human CYP11B1 (cortisol release)
- RECORDED CONDITIONS: G-402 cells expressing human CYP11B1; 1 μM Deoxycortisol
- Description: Herein we identified the use of the G-402 cell line as a host cell to ectopically express (transiently or stably) enzymes of the CYP11 family. […] Importantly the identified cell line G-402 expresses co-factors (adrenodoxin and adrenodoxin reductase) important for the activity of the CYP11 family and no relevant enzyme activity of the CYP11 family (in comparison to H295R cells) was detected in these cells. […]
pEC50: −log10 of the molar value.
# cutoff 9 applies to pEC50; >= gives 1, < gives -1

1) CN1C(=O)CCc2c1ccc(-c1[nH]ncc1CC1CCN(C(=O)c3ccnn3C)CC1)c2Cl :: -1
2) CC(=O)N1CCC(Cc2c[nH]nc2-c2cc3c(cc2F)N(C)C(=O)CC3)CC1 :: 1
3) CCS(=O)(=O)N1CCC(Cc2c[nH]nc2-c2ccc3c(c2)CCC(=O)N3C)CC1 :: 1
4) CCS(=O)(=O)N1CC2(CC(Cc3c[nH]nc3-c3ccc4c(c3Cl)CCC(=O)N4C)C2)C1 :: 1
5) CC(=O)N1CC2(CC(Cc3c[nH]nc3-c3ccc4c(c3Cl)CCC(=O)N4C)C2)C1 :: -1
6) CN1C(=O)CCc2c1ccc(-c1[nH]ncc1CC1CCN(C(=O)c3ccncc3Cl)CC1)c2Cl :: -1
7) CC(=O)N1CCC(Cc2c[nH]nc2-c2ccc3c(c2F)CCC(=O)N3C)CC1 :: 1
8) CN1C(=O)CCc2cc(-c3[nH]ncc3CC3CCN(C(=O)c4nccn4C)CC3)ccc21 :: 1

hey, is pEC50 for this one >= 9? "CN1C(=O)CCc2c1ccc(-c1n[nH]cc1CC1CC3(C1)CN(C(=O)c1cnn(C)c1)C3)c2Cl"
-1

hey, is pEC50 for this one >= 9? "CC(=O)N1CCC(Cc2c[nH]nc2-c2ccc3c(c2)CCC(=O)N3C)CC1"
1

hey, is pEC50 for this one >= 9? "CN1C(=O)CCc2c1ccc(-c1[nH]ncc1CC1CCN(C(=O)c3ncccc3Cl)CC1)c2Cl"
-1

hey, is pEC50 for this one >= 9? "CCS(=O)(=O)N1CCC(Cc2cn[nH]c2-c2ccc3c(c2F)CCC(=O)N3C)CC1"
1

###

- EXPERIMENTAL TARGET: UniProtKB P15538
- PROTOCOL NOTES: G-402 cellular enzyme assay, human CYP11B1 (cortisol release)
- RECORDED CONDITIONS: G-402 cells expressing human CYP11B1; 1 μM Deoxycortisol
Examples of compounds with documented pEC50 follow.
A value of pEC50 is the negative decimal logarithm of a concentration given in moles per litre.

Examples from the recorded data:
1. CN1C(=O)CCc2cc(-c3[nH]ncc3CC3CCN(C(=O)c4cncn4C)CC3)ccc21 [Example 31] :: 8.95
2. CN1C(=O)CCc2cc(-c3[nH]ncc3CC3CCN(C(=O)c4ncccc4Cl)CC3)ccc21 [Example 34] :: 9.26
3. CN1C(=O)CCc2c1ccc(-c1n[nH]cc1CC1CCN(C(=O)c3cnn(C)c3)CC1)c2F [Example 20] :: 9.14

Dear colleague, I am looking for the recorded pEC50 of the following compound: CN1C(=O)CCc2cc(-c3n[nH]cc3CC3CCN(C(=O)c4cnn(C)c4)CC3)ccc21 [Example 17]
8.92
